Measured inhibition accompanies every entry in the list below.
molecular target: Solute carrier family 2, facilitated glucose transporter member 1 (Homo sapiens); assay: ST_JUDE_LEISH: Cytotoxicity at 2uM final concentration against transgenic Leishmania Mexicana promastigotes LmGLUT1 that are glucose transport deficient and complemented with the human glucose transporter GLUT1. Activity is measured by DNA content using SYBR green in vitro; type: functional
Answer by giving the amount and then stating its unit.

Reference set, count: 5
compound	inhibition
CC(=O)CSC(C=Cc1ccc(N(C)C)cc1)=Nc1ccccc1	85.4%
O=C(Nc1ccc(-c2ccc(-c3nc4cc(C(F)(F)F)ccc4[nH]3)s2)cc1)c1ccoc1	0.13%
Cc1cc(C)c2c(c1)C(=NO)CCN2	-1.86%
OC(Cn1ccnc1)(c1ccc(Cl)cc1Cl)C1CCCCC1 (stereo not given)	7.78%
CC(C)CCNC(=O)C1Cc2c([nH]c3cc(Cl)ccc23)C2(CCN(CCc3ccccc3)CC2)N1 (stereo not given)	1.75%

Measured inhibition of `Oc1cc(Nc2ccnc3ccc(I)cc23)c(F)cc1Cl` : 0.49%

Measured inhibition of `COc1cc2c(cc1C(F)(F)F)N(C(=O)Nc1cc(F)cc(-c3cccnn3)c1)CC2` : -2.16%

Measured inhibition of CC(CCCC(=O)Nc1ccc(CC(C)NCCc2cccc(Cl)c2)cc1)NCCc1cccc(Cl)c1 (stereo not given) : 2.68%

Measured inhibition of `Cc1cccc2nc(-c3ccc(-c4ccc(NC(=O)Nc5ccsc5)cc4)cc3)[nH]c12` : 0.7%

Measured inhibition of O=c1cc(NCCCNC2CCCc3c2ccc2ccccc32)[nH]c2ccccc12 (stereo not given) : 4.07%

====

Measured inhibition accompanies every entry in the list below.
molecular target: Hexose transporter 1 (Plasmodium falciparum) (UniProt O97467); experiment: ST_JUDE_LEISH: Cytotoxicity at 2uM final concentration against transgenic Leishmania Mexicana promastigotes LmPfHT that are glucose transport deficient and complemented with the Plasmodium falciparum hexose transporter. Activity is measured by DNA content using SYBR green in vitro; assay type: functional
Please give a number only; it is taken to be in %.

Reference set, count: 4
item smiles	inhibition [%]
CC(C)(O)CC(C)(C)c1cc(Cl)ccc1O	5.76
Fc1ccc(C=NN=c2cc[nH]c3ccccc23)cc1	13.4
CC(=O)N1N=C(c2ccc(Cl)cc2)Sc2c1nc(C1CCCCC1)n2C(C)=O	0.1
O=C(N[C@@H](CC1CCCCC1)C(=O)NCCN1CCCC1)c1ccc(O)c(-c2cccc(C(F)(F)F)c2)c1	-0.43

Measured inhibition of `CC(C)(C)NCCN(Cc1ccc(-c2ccc(C(F)(F)F)cc2)cc1)C(=O)Cn1c(CCc2cccc(F)c2F)nc(=O)c2ccccc21` : 5

====

biological target: Solute carrier family 2, facilitated glucose transporter member 1 (Homo sapiens); experiment: ST_JUDE_LEISH: Cytotoxicity at 2uM final concentration against transgenic Leishmania Mexicana promastigotes LmGLUT1 that are glucose transport deficient and complemented with the human glucose transporter GLUT1. Activity is measured by DNA content using SYBR green in vitro; assay type: functional
Measured inhibition accompanies every entry in the list below.
Answer by giving the amount and then stating its unit.

Reference set, count: 2
compound	inhibition
Cc1nnsc1C(=O)Nc1ccc(-c2cccc(-c3nc4cc(F)ccc4[nH]3)c2)cc1	1.36%
Cc1nnc2c(NC(=O)NC3CCCC3)cc3ccc(-c4cccc(CN5CCN(C)CC5)c4)cc3n12	6.21%

Measured inhibition of `c1ccc2[nH]c(-c3ccc(-c4ccc(CN5CCN(CCN6CCOCC6)CC5)cc4)cc3)nc2c1` : 11.2%

Measured inhibition of `Cc1cc([N+](=O)[O-])ccc1N1CCN(CCCCNC(=O)c2ccc(NC(=O)c3ccc(Cl)cc3)cc2)CC1` : 4.75%

Measured inhibition of `Clc1ccc(-c2cc3c(NCc4ccncc4)nccc3s2)cc1` : 6.24%

Measured inhibition of `Nc1c2c(nc3ccc(NC(=O)c4ccc([N+](=O)[O-])cc4)cc13)CCCC2` : -1.93%

Measured inhibition of `O=c1cc(NCCCNCc2cccc(SC(F)(F)F)c2)[nH]c2ccccc12` : 3.33%

Measured inhibition of `O=C(NCCN1CCCCC1)N1CCCN(c2ncnc3cc(-c4ccccc4)sc23)CC1` : 2.21%

Measured inhibition of `CS(=O)(=O)Nc1cccc(-c2cnc3[nH]cc(-c4ccc(C(=O)O)cc4)c3c2)c1` : 0.37%

These entries and their values trace back to ChEMBL document CHEMBL3433997.
